# procedure-details: Permeability of the compound at pH 7.4 by PAMPA
# Assay type: ADME

compound: CC(C)=CCC[C@]1(C)C=Cc2c(O)c3c(c(CC=C(C)C)c2O1)O[C@]12C(=C[C@@H]4C[C@H]1C(C)(C)O[C@@]2(C/C=C(/C)C(=O)O)C4=O)C3=O [GAMBOGIC ACID]
permeability [×10⁻⁶ cm/s]: 26.5

###

# procedure-details: Permeability of the compound at pH 7.4 by PAMPA
# Type: ADME
# recorded-conditions: read-out: permeability
Measured Papp, listed per entry.

chemical-string: CCCCN(CCCC)C[C@@H]1[C@H]2COC3(CC=C(C)C)C(=O)[C@@H]1C=C1C(=O)c4c(O)cccc4O[C@]123
Papp / ×10⁻⁶ cm/s: 50.1

chemical-string: CC(C)=CCC12OC[C@@H]3[C@@H](COC(=O)Cc4ccccc4)[C@@H](C=C4C(=O)c5c(O)cccc5O[C@]431)C2=O
Papp / ×10⁻⁶ cm/s: 67.3

chemical-string: CC(C)=CCc1c(O)cc2c(c1O)C(=O)C1=C[C@H]3C(=O)C4(CC=C(C)C)OC[C@H]([C@H]3CN(CCO)CCO)[C@]14O2
Papp / ×10⁻⁶ cm/s: 9.1

chemical-string: CC(C)=CCC12OC[C@@H]3[C@@H](CN4CCOCC4)[C@@H](C=C4C(=O)c5c(O)cc6c(c5O[C@]431)C=CC(C)(C)O6)C2=O
Papp / ×10⁻⁶ cm/s: 36.3

chemical-string: CC(C)=CCC12OC[C@@H]3C[C@@H](C=C4C(=O)c5c(O)cc6c(c5O[C@]431)C=CC(C)(C)O6)C2=O
Papp / ×10⁻⁶ cm/s: 13.6

chemical-string: CC(C)=CCC12OC(C)(C)[C@@H]3C[C@@H](C=C4C(=O)c5c(O)cccc5O[C@]431)C2=O
Papp / ×10⁻⁶ cm/s: 77.6

chemical-string: CC(C)=CCc1c(O)cc(O)c2c1O[C@@]13C(=C[C@H]4C(=O)C1(CC=C(C)C)OC[C@@H]3[C@H]4COCc1ccccc1)C2=O
Papp / ×10⁻⁶ cm/s: 11

Just for reference, ChEMBL document CHEMBL2331512 is where these values come from.
